Reference source: patent US20220160843A1

- Test system: P. aeruginosa
- EXPERIMENTAL DETAILS: Time-kill assay of GN lysin activity
- Format: cell-based, Pseudomonas aeruginosa
- CONDITION NOTES: CAA/HuS; lysin 10 μg/mL; T = 0 7.8; buffer control 7.2; limit of detection 3.7; ‡ indicates bactericidal activity
Can you tell me Log10 CFU/mL T = 3 hr for the items I'm about to list?

Enquiry: Looking for the measured Log10 CFU/mL T = 3 hr of GN9: Native lysin, GenBank ECJ78460.1, SEQ ID NO: 21 (protein, Marine metagenome) MKNFNEIIEHVLKHEGGYVNDPKDLGGETKYGITKRFYPDLDIKNLTIEQATEIYKKDYWDKNKVESLPQNLWHIYFDMCVNMGKRTAVKVLQRAAVNRGRDIEVDGGLGPATIGALKGVELDRVRAFRVKYYVDLITARPEQEKFYLGWFRRATEV , can you help?
Return: 7.3 Log10 CFU/mL

Enquiry: Now this one: GN37: Native lysin, WP_014102102.1/VanY, SEQ ID NO: 12; first disclosed in WO/2017/049233 (protein, listed as Micavibrio aeruginosavorus) MTYTLSKRSLDNLKGVHPDLVAVVHRAIQLTPVDFAVIEGLRSVSRQKELVAAGASKTMNSRHLTGHAVDLAAYVNGIRWDWPLYDAIAVAVKAAAKELGVAIVWGGDWTTFKDGPHFELDRSKYR
Return: <3.7‡ Log10 CFU/mL

Enquiry: Now this one: GN108: Native lysin, GenBank YP_009288673.1, SEQ ID NO: 26 (protein, Acinetobacter phage phiAB6) MILTKDGFSIIRNELFEGKLDQTQVDAINFIVEKATEYGLTYPEAAYLLATIYHETGLPSGYRTMQPIKEAGSDSYLRSKKYYPYIGYGYVQLTWEENYERIGKLIGIDLVKNPEKALEPLIAIQIAIKGMLNGWFTGVGFRRKRPVSKYNKQQYVAARNIINGKDKAELIAKYAIIFERALRSL
Return: <3.7‡ Log10 CFU/mL
